Cited source for all entries: PubChem BioAssay (NCI)

System: DU-145 prostate
Test: NCI tumour cell line growth inhibition, 48 h
Outcome: YES for TGI of at least 40 µM; NO for anything lower.

# count of solved cases: 8
INSERT INTO measurements (molecule, class_assignment) VALUES
  ('COc1ccc(C2=CC(C(C)=C(C(N)=O)C(N)=O)C=C(c3ccc(Br)cc3)C2)c(OC)c1 (configuration not stated)', 'YES'),
  ('CC(C)(CN1CCCCC1)C(/C=C/c1ccc(Cl)cc1)=N\NC(=O)N/N=C(/C=C/c1ccc(Cl)cc1)C(C)(C)CN1CCCCC1', 'NO'),
  ('CC(C)(C)[Si](C)(C)OC1[C@@H](O[Si](C)(C)C(C)(C)C)[C@@H](CNC(=O)NC(=O)C(F)(F)F)O[C@H]1n1cnc2c(NC(=O)Nc3ccccc3)ncnc21 (some centres not stated)', 'NO'),
  ('COc1ccc(NC(=S)c2ccc(CN3CCCCC3)s2)cc1', 'YES'),
  ('Cc1nnc2ccnn2c1C', 'YES'),
  ('COCCn1cc(-c2nc(-c3cc4cccnc4[nH]3)cs2)c2cc(OC)ccc21', 'YES'),
  ('Cc1cc2c(cc1C)[n+](=O)c(C(=O)c1ccccc1)c(C(F)F)n2[O-]', 'YES'),
  ('CCOC(=O)CCC(NC(=O)C(N)Cc1ccc(N(CCCl)CCCl)cc1)C(=O)OCC (configuration not stated)', 'NO');

API: the following record is the query input.
I'd appreciate it if you could say whether COc1cc2c(cc1OC)C(Cl)C(c1ccc(F)cc1)=C2Cl (configuration not stated) has TGI at least equal to 40 µM. NO

---

Answer each item with its documented TGI.
System: SNB-75 CNS
Test: NCI tumour cell line growth inhibition, 48 h
One number for each entry, in µM.

INSERT INTO measurements (compound, result_number) VALUES
  ('O=C(Nc1cccc(C(F)(F)F)c1)Nc1cccc(C(F)(F)F)c1', 31.7),
  ('CC(=O)CC1CCC(=O)/C=C/C(=O)OC(CC(C)=O)CCC(=O)/C=C/C(=O)O1 (stereo not given)', 28.8);

Next:
Reported TGI, compound CCOC(=O)CCC(NC(=O)C(N)Cc1ccc(N(CCCl)CCCl)cc1)C(=O)OCC (stereo not given) : ____ 2.79

---

Please respond with reported TGI for every item in the list.
Tested on: HOP-62 NSCLC
Assay: NCI tumour cell line growth inhibition, 48 h

// worked examples, TGI included
INSERT INTO measurements (molecule, test_readout, result) VALUES
  ('Cc1cc(Nc2ccc(C)c(Cl)c2)n2nc(C(F)(F)F)nc2n1', 'TGI', '98.9 µM'),
  ('CCOC(=O)n1cc(C2=C(c3ccc(OC)c(OC)c3)COC2=O)c2ccccc21', 'TGI', '> 100 µM'),
  ('O=C(/C=C/c1c(O)ccc2ccccc12)c1ccc([N+](=O)[O-])cc1', 'TGI', '> 100 µM'),
  ('O=C1c2cccc3cc([N+](=O)[O-])cc(c23)C(=O)N1Nc1ccc([N+](=O)[O-])cc1[N+](=O)[O-]', 'TGI', '50.5 µM'),
  ('Cn1cc(-c2cc3c(N4CCN(c5ncc([C@@](C)(N)c6ccc(F)cc6)cn5)CC4)ncnn3c2)cn1', 'TGI', '> 100 µM'),
  ('COC1=CC(=O)C(C2(OC(C)C)OC(=O)C(Cl)=C2Cl)=CC1=O (configuration not stated)', 'TGI', '> 100 µM');

Now for the molecule whose TGI we want.
So what does the record say about TGI for Cc1nn(C(=O)Cc2ccccc2)c2c1C(c1ccccc1)SC(N)=N2 (configuration not stated) ? > 100 µM

---

Tested on: OVCAR-4 ovarian
Assay: NCI tumour cell line growth inhibition, 48 h
Exercise: state measured TGI for each of the compounds provided.

Study these solved cases before continuing.
INSERT INTO assay_data (compound, system_under_test, test_readout, result) VALUES
  ('Cc1ccc(S(=O)(=O)N2CC2CCCCC=O)cc1 (stereo unspecified)', 'OVCAR-4 ovarian', 'TGI', '> 100 µM'),
  ('O=C1c2cccc3cc([N+](=O)[O-])cc(c23)C(=O)N1Nc1ccc([N+](=O)[O-])cc1[N+](=O)[O-]', 'OVCAR-4 ovarian', 'TGI', '> 46.4 µM'),
  ('CCCCCCCCCCCCNC(=S)OC', 'OVCAR-4 ovarian', 'TGI', '38.6 µM'),
  ('CCOC(=O)c1cc(-c2ccc(OC)cc2)c([N+](=O)[O-])n1C', 'OVCAR-4 ovarian', 'TGI', '> 10 µM'),
  ('Cc1cn(C2OC(CO[Si](C)(C)C(C)(C)C)C(N(C)O[Si](C)(C)C(C)(C)C)C2[Se]c2ccccc2)c(=O)[nH]c1=O (stereo unspecified)', 'OVCAR-4 ovarian', 'TGI', '8.58 µM'),
  ('O=C1NC(=NCc2ccccc2)S/C1=C\c1ccc2ncccc2c1', 'OVCAR-4 ovarian', 'TGI', '> 25 µM');

Give measured TGI for every item shown.
1. COC(=O)c1cc2oc(/C=C3/SC(=S)N(NC(C)=O)C3=O)cc2n1C
2. O=C1NC2(CCN(CCc3ccccc3)CC2)Oc2ccccc21
3. N#Cc1cccc(-n2[nH]c(=O)ccc2=O)c1
4. O=c1c(F)cn(Cc2c(Cl)cccc2Cl)c(=O)n1Cc1c(Cl)cccc1Cl
5. COCOC1/C=C/CCCCC(=O)C(C)C#CC1 (stereo unspecified)

["> 100 µM", "> 100 µM", "> 100 µM", "> 31.6 µM", "24.4 µM"]

---

Tested on: RXF 393 renal
Assay: NCI tumour cell line growth inhibition, 48 h; in the data active = GI50 below about 0.43 µM; inactive = the rest
The reply should name one outcome from Yes = active, No = inactive

Sample answers from the record:
INSERT INTO measurements (compound, class_assignment) VALUES
  ('[O-][Cl+3]([O-])([O-])[O-].[O]=[Ru]=[O].c1ccc(-c2ccccn2)nc1.c1ccc(-c2ccccn2)nc1', 'No'),
  ('COc1ccc(Cn2c(Br)c3c(c2Br)-c2nc(N)sc2CC3)cc1', 'No'),
  ('CC(C)[C@@H]1NC(=O)[C@]2(C)CSC(=N2)c2ccnc(c2)CNC(=O)C[C@@H](/C=C/CCS)OC1=O', 'Yes'),
  ('COc1ccc(C(c2cc(OC)c(OC)c(OC)c2)n2cncn2)cc1O (configuration not stated)', 'Yes'),
  ('c1ccc(Nc2ncc(-c3ccccc3)o2)cc1', 'No'),
  ('c1ccc(-c2n(Cc3ccc4ccccc4n3)cc[n+]2Cc2ccc3ccccc3c2)cc1', 'No');

Now turn to the next compound.
Entry O=C(NC1CCCCC1)NS(=O)(=O)c1ccc(N2N=C3c4ccccc4CC3C2c2ccc(Cl)cc2)cc1 (configuration not stated) : call = ? No

---

For each of the compounds below, state its TGI.
Test system: ACHN renal
Experiment: NCI tumour cell line growth inhibition, 48 h
Where a SMILES comes first, the peptide text is derived from it. The star is where a group is joined. OSu = O=C1CCC(=O)N1O*

INSERT INTO results (compound, test_readout, result) VALUES
  ('CSC(=O)c1sc(SC)[n+](-c2ccccc2)c1O', 'TGI', '> 100 µM'),
  ('C[C@]12c3c4cc(NC(=O)C(=O)NCc5ccc(-c6ccccn6)nc5)cc3Oc3cc(NC(=O)C(=O)NCc5ccc(-c6ccccn6)nc5)cc(c31)OC1C=C(NC(=O)C(=O)NCc3ccc(-c5ccccn5)nc3)C=C(O4)C12 (stereo partly drawn)', 'TGI', '59.2 µM'),
  ('O=C1c2cc3c(cc2CC12Cc1ccc4c(c1C2=O)CCC4)CCCC3 (stereo not drawn)', 'TGI', '> 100 µM');

// batch mode: one TGI value per listed entry
1. C=C1C(=O)O[C@H]2[C@H]1CC/C(CNC(=O)c1cc3ccccc3[nH]1)=C\CC[C@@]1(C)O[C@@H]21
2. NCCCCC(NC(=O)C(N)Cc1ccc(O)cc1)C(=O)NC(CCCCN)C(=O)NC(CCCCN)C(=O)ON1C(=O)CCC1=O (stereo not drawn) (H-YKKK-OSu; configuration not given here)
3. CCCCCCOc1ccc(/C=N/Nc2cc(C)nc3ccc(Cl)cc23)cc1
4. CCn1cnc2c(=S)nc(N)[nH]c21
5. CCOC(=O)C12OC(OCC)(CC1(OCC)OCC)C1(CC1)C2=O (stereo not drawn)

1: 3.07 µM; 2: > 100 µM; 3: 3.08 µM; 4: > 100 µM; 5: > 100 µM

---

Give TGI for every item shown.
Test system: HT29 colon
Experiment: NCI tumour cell line growth inhibition, 48 h
Answers are plain numbers, in µM.

Here's what some known entries look like.
INSERT INTO measurements (compound, result_number) VALUES
  ('COc1cc2c(/C=C3/C(=O)Nc4cccc(Cl)c43)c(Cl)[nH]c2cc1C', 3.96),
  ('NC(=S)N/N=C\c1nccc2c(C(F)(F)F)cccc12', 16.5),
  ('O=C1/C(=C\c2ccc(Cl)cc2Cl)Sc2scc(-c3ccc(O)c(O)c3)[n+]21', 32.6);

Here is the next item to consider.
For the compound shown here, Cc1cn(C2OC(CO[Si](C)(C)C(C)(C)C)C(N(C)O[Si](C)(C)C(C)(C)C)C2[Se]c2ccccc2)c(=O)[nH]c1=O (stereo not given) , give the reported TGI. 16.8
